The origin of these recorded values is ChEMBL document CHEMBL3526109.

- assay-remarks: Drug excretion in Sprague-Dawley rat feces treated with [14C]brivanib alaninate at 100 mg/kg, po administered as single dose via gavage by HPLC analysis
- Assay type: ADME, organism-based
- condition: in vivo
reported-property: Compound recovery

- CC(=O)COc1cn2ncnc(Oc3ccc4[nH]c(C)cc4c3F)c2c1C: metabolite_not_detected
- Cc1cc2c(F)c(Oc3ncnn4cc(OC[C@@H](C)O[C@@H]5O[C@H](C(=O)O)[C@@H](O)[C@H](O)[C@H]5O)c(C)c34)ccc2[nH]1: metabolite_not_detected
- Cc1c(O)cn2ncnc(Oc3ccc4[nH]c(C(=O)O)cc4c3F)c12: metabolite_not_detected
